experiment: Solubility in water; format: physicochemical; conditions: read-out: S
measure-name: solubility (µM)

CC(C)CCn1c(=O)c2nc(-c3ccccc3)[nH]c2n(CC(C)C)c1=O | 10

[I] Cn1c(=O)c2[nH]c(-c3ccc(C(=O)O)cc3)nc2n(C)c1=O
[II] Cn1c(=O)c2nc(-c3ccc(O)cc3)[nH]c2n(C)c1=O
q: Choose between I and II : whose measured solubility value is numerically larger? Answer by stating the label of the chosen item.
a: I
(I: 90 µM, II: 5 µM)

----------
target: Adenosine receptor A2a (Cavia porcellus); experiment: Antagonism of cyclic [3H]AMP accumulation elicited by 15 uM 2-chloroadenosine in [3H]adenine-labeled guinea pig cerebral cortical slices at A2 receptor
Sequence (P46616 whole entry): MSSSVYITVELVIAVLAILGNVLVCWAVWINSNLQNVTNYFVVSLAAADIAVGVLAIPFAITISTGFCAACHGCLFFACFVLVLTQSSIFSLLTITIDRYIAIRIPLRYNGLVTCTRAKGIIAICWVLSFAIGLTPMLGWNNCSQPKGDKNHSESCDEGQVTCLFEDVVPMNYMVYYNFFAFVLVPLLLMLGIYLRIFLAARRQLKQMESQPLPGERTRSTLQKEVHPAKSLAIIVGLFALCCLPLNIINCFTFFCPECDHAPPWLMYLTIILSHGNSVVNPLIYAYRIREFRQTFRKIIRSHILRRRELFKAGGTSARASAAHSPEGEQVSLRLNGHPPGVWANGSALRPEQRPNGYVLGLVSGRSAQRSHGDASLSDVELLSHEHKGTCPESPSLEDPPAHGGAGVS
measure-name: EC50 (µM)
# unit: µM | format: bare number

In plain terms, Nc1nc(Cl)nc2c1ncn2[C@@H]1O[C@H](CO)[C@@H](O)[C@H]1O has a documented EC50 of 8
